- Test system: PI3-kinase p110-delta/p85-alpha (Homo sapiens)
- Sequence (P27986 whole entry): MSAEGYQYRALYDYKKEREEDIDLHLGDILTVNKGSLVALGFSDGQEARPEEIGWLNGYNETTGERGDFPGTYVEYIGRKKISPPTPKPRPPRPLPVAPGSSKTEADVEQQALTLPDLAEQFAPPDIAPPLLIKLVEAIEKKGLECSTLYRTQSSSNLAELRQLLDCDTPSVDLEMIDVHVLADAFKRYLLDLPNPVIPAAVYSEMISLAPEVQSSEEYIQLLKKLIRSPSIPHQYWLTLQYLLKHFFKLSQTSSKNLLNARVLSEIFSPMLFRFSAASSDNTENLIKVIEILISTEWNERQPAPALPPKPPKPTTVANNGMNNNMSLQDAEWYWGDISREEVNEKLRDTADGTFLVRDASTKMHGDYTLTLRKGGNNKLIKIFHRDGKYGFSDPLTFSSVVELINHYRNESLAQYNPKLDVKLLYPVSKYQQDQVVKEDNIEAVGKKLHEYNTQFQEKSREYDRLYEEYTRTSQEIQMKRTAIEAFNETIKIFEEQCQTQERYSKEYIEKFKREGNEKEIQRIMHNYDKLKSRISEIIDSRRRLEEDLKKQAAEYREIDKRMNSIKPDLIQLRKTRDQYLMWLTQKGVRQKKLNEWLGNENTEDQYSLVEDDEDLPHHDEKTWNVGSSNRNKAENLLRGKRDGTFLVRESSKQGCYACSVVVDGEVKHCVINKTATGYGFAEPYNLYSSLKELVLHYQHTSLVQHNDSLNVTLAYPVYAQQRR
- Sequence (O00329 whole entry): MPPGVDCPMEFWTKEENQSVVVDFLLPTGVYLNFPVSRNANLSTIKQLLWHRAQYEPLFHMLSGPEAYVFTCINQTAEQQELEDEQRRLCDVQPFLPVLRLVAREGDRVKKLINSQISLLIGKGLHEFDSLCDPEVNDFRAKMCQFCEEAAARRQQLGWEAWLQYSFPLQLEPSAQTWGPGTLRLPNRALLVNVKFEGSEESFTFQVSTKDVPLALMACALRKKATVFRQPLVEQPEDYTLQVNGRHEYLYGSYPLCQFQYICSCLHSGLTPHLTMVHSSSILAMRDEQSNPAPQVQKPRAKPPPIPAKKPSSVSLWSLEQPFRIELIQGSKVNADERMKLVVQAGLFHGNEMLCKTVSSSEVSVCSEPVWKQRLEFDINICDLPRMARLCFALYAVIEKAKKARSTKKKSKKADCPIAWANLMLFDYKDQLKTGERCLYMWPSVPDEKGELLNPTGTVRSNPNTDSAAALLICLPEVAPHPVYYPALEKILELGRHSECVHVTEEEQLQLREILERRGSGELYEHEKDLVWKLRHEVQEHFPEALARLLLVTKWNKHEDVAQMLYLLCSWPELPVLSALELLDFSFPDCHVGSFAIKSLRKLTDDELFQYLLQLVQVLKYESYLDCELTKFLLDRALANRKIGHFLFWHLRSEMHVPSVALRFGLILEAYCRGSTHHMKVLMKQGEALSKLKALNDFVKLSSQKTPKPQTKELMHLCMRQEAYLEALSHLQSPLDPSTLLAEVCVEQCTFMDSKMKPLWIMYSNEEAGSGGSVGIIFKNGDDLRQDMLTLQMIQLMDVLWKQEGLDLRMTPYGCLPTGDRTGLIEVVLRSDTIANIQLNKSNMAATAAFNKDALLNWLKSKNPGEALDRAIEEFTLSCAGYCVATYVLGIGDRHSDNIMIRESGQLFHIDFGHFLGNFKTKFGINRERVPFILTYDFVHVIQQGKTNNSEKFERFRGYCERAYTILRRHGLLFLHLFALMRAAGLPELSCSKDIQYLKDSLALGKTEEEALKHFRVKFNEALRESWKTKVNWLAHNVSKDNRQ
- Procedure details: Inhibition of human full length recombinant His-tagged PIK3CD/PIK3R1 expressed in baculovirus expression system after 60 mins by LanthaScreen Eu binding assay in presence of kinase tracer 314
Assay readout: pIC50
Scale: pIC50 equals -log10([C]), with [C] in mol/L.

Prompt: Look up and report pIC50, with PI3-kinase p110-delta/p85-alpha (Homo sapiens) as system, for Cc1nn(-c2ccccc2)c2c1-c1nc(N)ncc1CC2
Completion: 5.09

Prompt: Look up and report pIC50, with PI3-kinase p110-delta/p85-alpha (Homo sapiens) as system, for CN(Cc1ccccc1)c1ncnc2ccc(Br)cc12
Completion: 5.16

Prompt: Look up and report pIC50, with PI3-kinase p110-delta/p85-alpha (Homo sapiens) as system, for c1ccc(CSc2nc(N3CCOCC3)c3sccc3n2)cc1
Completion: 5.42

Prompt: Look up and report pIC50, with PI3-kinase p110-delta/p85-alpha (Homo sapiens) as system, for Clc1ccc2ncnc(NCCOc3ccccc3)c2c1
Completion: 5.26

Prompt: Look up and report pIC50, with PI3-kinase p110-delta/p85-alpha (Homo sapiens) as system, for Cn1ccc2cc(-c3cnc4cnc(-c5cccc(C(N)=O)c5)cn34)ccc21
Completion: 6.37

Prompt: Look up and report pIC50, with PI3-kinase p110-delta/p85-alpha (Homo sapiens) as system, for Clc1ccc2ncnc(NCCCc3ccccc3)c2c1
Completion: 5.50

Prompt: Look up and report pIC50, with PI3-kinase p110-delta/p85-alpha (Homo sapiens) as system, for NC(=O)c1nc(-c2ccc3ncccc3c2)nc2c1[nH]c(=O)n2CCc1ccccc1
Completion: 5.61

Prompt: Look up and report pIC50, with PI3-kinase p110-delta/p85-alpha (Homo sapiens) as system, for Cc1nc2ccc(Cl)cn2c1-c1ccnc(N)n1
Completion: 5.59

Prompt: Look up and report pIC50, with PI3-kinase p110-delta/p85-alpha (Homo sapiens) as system, for c1cncc(CCNc2ccc3ncc(-c4cc5ccccc5s4)n3n2)c1
Completion: 5.19

Prompt: Look up and report pIC50, with PI3-kinase p110-delta/p85-alpha (Homo sapiens) as system, for CN1CCC(NCc2ccc(Nc3ncc4cnn([C@H]5C[C@@H]6CC[C@H]5C6)c4n3)cc2)CC1
Completion: 6.47

Prompt: Look up and report pIC50, with PI3-kinase p110-delta/p85-alpha (Homo sapiens) as system, for O=C(C1CC=CCC1)N1CCCC(c2n[nH]c3ncccc23)C1 (stereo unspecified)
Completion: 5.07

----------
Answer each item with its documented IC50.
- Test system: Phosphatidylinositol 4,5-bisphosphate 3-kinase catalytic subunit gamma isoform (Homo sapiens)
- Sequence (P48736 whole entry, canonical isoform): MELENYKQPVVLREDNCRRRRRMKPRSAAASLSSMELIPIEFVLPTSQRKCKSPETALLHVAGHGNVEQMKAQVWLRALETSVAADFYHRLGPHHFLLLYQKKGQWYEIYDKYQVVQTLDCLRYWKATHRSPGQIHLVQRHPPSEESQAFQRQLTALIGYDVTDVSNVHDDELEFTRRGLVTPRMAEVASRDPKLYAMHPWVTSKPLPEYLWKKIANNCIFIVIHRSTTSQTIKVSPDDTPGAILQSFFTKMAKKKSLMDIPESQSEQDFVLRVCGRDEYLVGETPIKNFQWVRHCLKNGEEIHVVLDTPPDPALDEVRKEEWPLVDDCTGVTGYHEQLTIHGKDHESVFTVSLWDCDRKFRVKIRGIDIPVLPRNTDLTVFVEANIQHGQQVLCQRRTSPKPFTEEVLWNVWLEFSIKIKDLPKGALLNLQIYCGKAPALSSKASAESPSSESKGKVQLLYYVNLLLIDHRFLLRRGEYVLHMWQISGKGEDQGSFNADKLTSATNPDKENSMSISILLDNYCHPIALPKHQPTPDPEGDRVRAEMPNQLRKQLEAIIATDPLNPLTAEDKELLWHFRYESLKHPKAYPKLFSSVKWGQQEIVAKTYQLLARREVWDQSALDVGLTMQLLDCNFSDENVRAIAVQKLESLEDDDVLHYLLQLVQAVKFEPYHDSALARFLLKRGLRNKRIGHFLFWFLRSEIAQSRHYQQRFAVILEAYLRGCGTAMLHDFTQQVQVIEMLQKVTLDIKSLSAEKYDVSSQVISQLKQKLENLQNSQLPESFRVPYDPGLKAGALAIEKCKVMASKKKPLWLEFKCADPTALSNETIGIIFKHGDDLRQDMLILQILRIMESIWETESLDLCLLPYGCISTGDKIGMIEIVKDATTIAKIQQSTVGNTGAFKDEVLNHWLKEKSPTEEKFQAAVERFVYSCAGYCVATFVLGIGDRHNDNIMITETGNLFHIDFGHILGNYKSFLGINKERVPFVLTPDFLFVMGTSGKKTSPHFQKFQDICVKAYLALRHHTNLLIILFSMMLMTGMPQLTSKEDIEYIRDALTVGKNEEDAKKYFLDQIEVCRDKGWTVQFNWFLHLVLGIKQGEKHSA
- Procedure details: Inhibition of human PI3Kgamma using PIP2 as substrate by HTRF assay in presence of biotin-PIP3
// note: answer is a bare numeric in µM

Prompt: Input COc1cc(Nc2ccn3ncc(-c4cccc(C(N)=O)c4)c3n2)cc(OC)c1OC , output reported IC50.
Completion: 6.17

Prompt: Input COc1cc(-c2cnc3ccc(NCc4ccco4)nn23)ccc1O , output reported IC50.
Completion: 6.92

Prompt: Input COc1cc(-c2cnn3ccc(Nc4ccc(C(C)C)cc4)nc23)ccc1O , output reported IC50.
Completion: 2.4

Prompt: Input COc1cncc(-c2cnn3ccc(NC4CCC(O)CC4)nc23)c1 (stereo not given) , output reported IC50.
Completion: 5.75

Prompt: Input FC(F)(F)c1cc(Nc2nc3ccccc3s2)cc(C(F)(F)F)c1 , output reported IC50.
Completion: 5.5
